Listed proteins paired with reported SKGR/SL kcat/Km
systemTested: T1, quenched fluorescence peptidic substrate containing SKGR/SL (P4-P2' of the PAR-2 activation cleavage site, Ser 33 to Leu 38)
T1 chain: SKGRSL
measure: SKGR/SL kcat/Km

>>> observedresult("Q38H/I41S/D60bT/F60eS/Y60gW/F97D/ins97aV/T98P/F99L/C122S/G151H/Q175L/Q192D (protein) VVGGTDADEGEWPWQVSLHALGHGHSCGASLISPNWLVSAAHCYIDTRGSRWSDPTQWTAFLGLHDQSQRSAPGVQERRLKRIISHPFFNDDVPLDYDIALLELEKPAEYSSMVRPISLPDASHVFPAGKAIWVTGWGHTQYGGTHALILQKGEIRVINQTTCENLLPQLITPRMMCVGFLSGGVDSCDGDSGGPLSSVEADGRIFQAGVVSWGDGCAQRNKPGVYTRLPLFRDWIKENTGV")
"1730 M⁻¹ s⁻¹"
>>> observedresult("Q38H/I41A/D60bV/F60eR/Y60gW/F97T/ins97aE/T98G/F99L/C122S/G151N/Q175L/Q192D (protein) VVGGTDADEGEWPWQVSLHALGHGHACGASLISPNWLVSAAHCYIDVRGRRWSDPTQWTAFLGLHDQSQRSAPGVQERRLKRIISHPFFNDTEGLDYDIALLELEKPAEYSSMVRPISLPDASHVFPAGKAIWVTGWGHTQYGGTNALILQKGEIRVINQTTCENLLPQLITPRMMCVGFLSGGVDSCDGDSGGPLSSVEADGRIFQAGVVSWGDGCAQRNKPGVYTRLPLFRDWIKENTGV")
"925 M⁻¹ s⁻¹"
